Attribution: PubChem BioAssay (NCI)

Test system: HS 578T breast
Assay: NCI tumour cell line growth inhibition, 48 h
observation.type: TGI

chemical.smiles | TGI
C#CCNCCCN1C(=O)c2ccc3c4c(ccc(c24)C1=O)C(=O)N(CCCNCC#C)C3=O | 4.76 µM
O=C(Nc1ccccc1C(=O)N/N=C(\c1ccccc1)c1ccccn1)c1ccccc1 | > 100 µM
O=Cc1cn(Cc2ccccc2)c2ccccc12 | > 100 µM
COC(=O)N[C@H]1C=C[C@@H]2/C=C(C)/C=C/[C@@H](C)[C@H]([C@H](C)[C@H](O)[C@@H](C)NC(C)=O)OC(=O)/C=C/C=C(C)\C=C\[C@]2(C)C1 | > 45.3 µM
O=c1[nH]nc(-c2nn(-c3ccc(Cl)cc3)cc2O)o1 | 3.16 µM
O=C1/C(=C/c2ccc(Cl)cc2)N=C(c2ccccc2)N1c1nc2ccc(Sc3ccccc3)cc2[nH]1 | 91.4 µM
CCN(CC)C(=S)SS(=O)(=O)c1ccc(N)cc1 | > 100 µM
NS(=O)(=O)c1ccc(N=Nc2c(O)[nH]c3ccc(Cl)cc23)cc1 | > 25 µM

Pending molecule:
INPUT: Look up TGI: Cc1cc(S(=O)(=O)N/C(=C(\C#N)C(=O)c2ccccc2)[n+]2ccc(N(C)C)cc2)c([S-])cc1Cl
OUTPUT: > 100 µM

* * *

Tested on: MOLT-4 leukemia
Assay: NCI tumour cell line growth inhibition, 48 h
observation.type: TGI

compound | TGI
COC(=O)Nc1nc2ccc(NS(=O)(=O)c3ccc(Cl)cc3)cc2[nH]1 | > 100 µM

INPUT: Which TGI reading was recorded for the compound CCCCCCCC/C=C/CCCCCCCC(=O)N(O)C1CC(n2cc(C)c(=O)[nH]c2=O)OC1CO (stereo not given) ?
OUTPUT: 19.6 µM

INPUT: If you can, please state the reported TGI value of COc1cc(C2c3cc4c(cc3[C@@H](Nc3ccc(F)cc3)C3CO[C@@H](O)[C@H]23)OCO4)cc(OC)c1O (stereo not given in full) .
OUTPUT: 4.43 µM

INPUT: Any idea what TGI was measured for CN(C)C(=S)/N=c1\ssc(=Nc2ccccc2)n1C ?
OUTPUT: > 100 µM

INPUT: What value of TGI has been reported for the following compound? CS(=O)(=O)Nc1ccc2c(c1)N(S(C)(=O)=O)CC2COS(C)(=O)=O (stereo not given)
OUTPUT: > 100 µM

INPUT: Entry COc1ccc(/C=C2\C(=O)NC(=O)c3ccccc32)cc1OC has what TGI?
OUTPUT: 76.6 µM

* * *

Tested on: OVCAR-3 ovarian
Experiment: NCI tumour cell line growth inhibition, 48 h
observation.type: TGI

compound | measured.result
CCCCCCCC/C=C/CCCCCCCC(=O)N(O)C1CC(n2cc(C)c(=O)[nH]c2=O)OC1CO (stereo unspecified) | 20.1 µM
C=C1C(=O)C23CC1CCC2C12CO[C@H](O)[C@H]1C(C)(C)[C@H](OC(C)=O)C[C@H]2OC3=O (stereo partly specified) | 55.2 µM
O=C([CH-]C(=O)C(F)(F)F)c1ccccc1.O=C([CH-]C(=O)C(F)(F)F)c1ccccc1.[O]=[U+2]=[O] | 56.7 µM

INPUT: Requested field: TGI. Item: O=C(Nc1ccccc1C(=O)N/N=C(\c1ccccc1)c1ccccn1)c1ccccc1
OUTPUT: > 100 µM

* * *

System: M19-MEL melanoma
Test: NCI tumour cell line growth inhibition, 48 h
Reported values of TGI for individual entries

molecule | TGI
Nc1nc2c3c(ncn3CC(O)CO2)n1 (stereo not given) | 19.4 µM
CC1(C)OCC[C@@H]1[Si](C)(C)C | > 100 µM
Oc1ccc2c(c1)OCC1(O)Cc3cc(O)c(O)cc3C21 (stereo not given) | > 86 µM
CN1CCN(Cc2nc3cccc4c3c([n+]2[O-])-c2ccccc2-4)CC1 | > 100 µM

INPUT: Short answer please: TGI, M19-MEL melanoma, entry CCCC(=O)Nc1ccc(O)c2c1C1CCCCCC21 (stereo not given)
OUTPUT: > 100 µM

* * *

Tested on: SK-MEL-28 melanoma
Experiment: NCI tumour cell line growth inhibition, 48 h
Documented GI50 across a set of molecules

Past entries and their recorded results:
molecule | GI50
CCCCCCCCCCCCCCCC(=O)Nc1ccn([C@@H]2O[C@H](CO)[C@@H](O)[C@@H]2C#N)c(=O)n1 | 33.1 µM
COc1ccc(C2NC(=O)c3cc4c(cc3N2)OCO4)cc1 (stereo unspecified) | 0.719 µM

INPUT: For CC(=O)/C(=C\c1c(-c2ccccc2)[nH]c2ccccc12)S(C)(=O)=O , what is its reported GI50?
OUTPUT: 3.34 µM

INPUT: What does the data say about its GI50? Entry: CC(C)(C(=O)NCC(F)(F)C(F)(F)F)C(=O)N[C@@H]1C(=O)Nc2ccccc2-c2ccccc21
OUTPUT: 42 µM

INPUT: Reported GI50 for COC(=O)C(C)NP(=O)(OCc1ccc(Cn2cnc3c(N)ncnc32)cc1)Oc1ccccc1 (stereo unspecified) : what is it?
OUTPUT: 30.4 µM

INPUT: I'd like to know its GI50. The molecule in question is COc1cc(-c2cc(-c3nc4ccc(F)cc4[nH]3)[nH]n2)cc(OC)c1OC
OUTPUT: 2.39 µM

INPUT: // lookup GI50 for C#CCNCCCN1C(=O)c2ccc3c4c(ccc(c24)C1=O)C(=O)N(CCCNCC#C)C3=O
OUTPUT: 0.613 µM

INPUT: Recorded GI50 for COc1cc2nccc(Oc3ccc(NC(=O)C4(C(=O)Nc5ccc(F)cc5)CC4)cc3)c2cc1OC(=O)c1ccc(N)cc1 , please?
OUTPUT: 1.34 µM

INPUT: Quick check: GI50 of O=C(NNC(=O)c1ccccc1S)c1ccccc1S ?
OUTPUT: 35.3 µM

INPUT: GET /values?readout=GI50&item= Nc1c(C(=O)N/N=C/c2ccco2)cnn1-c1ccnc2c(C(F)(F)F)cccc12
OUTPUT: 19.1 µM

INPUT: Could you share which GI50 value was measured for COc1ccc(/C=C/C(=O)Nc2cc(/C=C\c3cc(OC)c(OC)c(OC)c3)cc(OC)c2OC)cc1OC ?
OUTPUT: 2.87 µM

* * *

GI50 overview
Tested on: OVCAR-8 ovarian
Assay: NCI tumour cell line growth inhibition, 48 h

Past entries and their recorded results:
chemical.smiles | tgt | measured.result
COc1ccc(/C=C(/C(=O)N2CCCCC2)c2cc(OC)c(OC)c(OC)c2)cc1 | OVCAR-8 ovarian | 6.12 µM
C=C(C)[C@@H]1CC[C@]2(C(N)=O)CC[C@]3(C)[C@H](CC[C@@H]4[C@@]5(C)C/C(=C/c6cccnc6)C(=O)C(C)(C)[C@@H]5CC[C@]43C)[C@@H]12 | OVCAR-8 ovarian | 9.96 µM

We now examine a further compound.
INPUT: Which GI50 reading was recorded for the compound COC(=O)[C@]12CC[C@@H](C)[C@H](C)[C@@H]1C1=CC[C@@H]3[C@@]4(C)C[C@@H](OC(C)=O)[C@H](O)[C@@](C)(CO)[C@@H]4[C@H](O)C[C@@]3(C)[C@]1(C)CC2 ?
OUTPUT: 12.2 µM

* * *

System: SK-MEL-28 melanoma
Experiment: NCI tumour cell line growth inhibition, 48 h
observation.type: TGI

Field: example entries. Status: answers known.
compound | TGI
C=C1CC[C@]2(C)[C@H](CC[C@@]34C[C@@H](CC[C@H]32)[C@@H](C(=O)O)C4)C1(C)C | > 12.5 µM
Nc1c(C(=O)N/N=C/c2ccco2)cnn1-c1ccnc2c(C(F)(F)F)cccc12 | 36.8 µM
CCOC(=O)c1ccc(O)cc1 | > 100 µM

INPUT: What value of measured TGI is listed for CC(NC(=O)OC(C)(C)C)C(=O)NC1CCCC1 (stereo unspecified) ?
OUTPUT: > 100 µM

INPUT: Record request: TGI value, item CC(C)(C(=O)NCC(F)(F)C(F)(F)F)C(=O)N[C@@H]1C(=O)Nc2ccccc2-c2ccccc21
OUTPUT: > 100 µM

INPUT: Sample O=c1[nH]nc(-c2nn(-c3ccc(Cl)cc3)cc2O)o1 — what was its TGI?
OUTPUT: > 100 µM

INPUT: Which TGI value belongs to CCCCCCCCCCCCC(CC)CCCCC(=O)O (stereo unspecified) ?
OUTPUT: > 100 µM

INPUT: Any idea what TGI was measured for NC(=O)CC(N)C(N)=O (stereo unspecified) ?
OUTPUT: > 100 µM

INPUT: Dear colleague, I am looking for the recorded TGI of the following compound: O=C1C2=C(C(c3ccccc3)=C1c1ccccc1)c1ccccc1C1(c3ccccc3)C2=C(O)C(c2ccccc2)=C1c1ccccc1 (stereo unspecified)
OUTPUT: > 100 µM

INPUT: Which measured TGI value corresponds to NS(=O)(=O)c1ccc(N=Nc2c(O)[nH]c3ccc(Cl)cc23)cc1 ?
OUTPUT: > 25 µM

INPUT: Request the reported TGI associated with Cc1ccc(C(=O)N/N=C(\N=Nc2cccc(C)c2)c2ccc(N(CCC#N)CCC#N)cc2C)cc1
OUTPUT: 61.4 µM
